B1: library; a variant is named by its letters at N, in order (parent)
chain: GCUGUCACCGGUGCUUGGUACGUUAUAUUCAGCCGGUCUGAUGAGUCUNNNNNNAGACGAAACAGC

Variants of: B1
Assay: normalized RNA/DNA level without ligand (relative to sTRSVctl = 100) (log10 (% of sTRSVctl)); HEK293T overexpressing SLC46A1; higher = less ribozyme self-cleavage, higher mRNA level
Settings: without (6R,S)-folinic acid; ligand present: no
Quantity: normalized RNA/DNA level without ligand (log10)

GCUGUCACCGGUGCUUGGUACGUUAUAUUCAGCCGGUCUGAUGAGUCUCGUAGCAGACGAAACAGC [CGUAGC]    2.03
GCUGUCACCGGUGCUUGGUACGUUAUAUUCAGCCGGUCUGAUGAGUCUAAUGAAAGACGAAACAGC [AAUGAA]    1.96
GCUGUCACCGGUGCUUGGUACGUUAUAUUCAGCCGGUCUGAUGAGUCUUCCAGCAGACGAAACAGC [UCCAGC]    2.03
GCUGUCACCGGUGCUUGGUACGUUAUAUUCAGCCGGUCUGAUGAGUCUAUAUAUAGACGAAACAGC [AUAUAU]    1.95
GCUGUCACCGGUGCUUGGUACGUUAUAUUCAGCCGGUCUGAUGAGUCUGAUCGAAGACGAAACAGC [GAUCGA]    2.03
GCUGUCACCGGUGCUUGGUACGUUAUAUUCAGCCGGUCUGAUGAGUCUUUGCUAAGACGAAACAGC [UUGCUA]    2
GCUGUCACCGGUGCUUGGUACGUUAUAUUCAGCCGGUCUGAUGAGUCUCUUACUAGACGAAACAGC [CUUACU]    2
GCUGUCACCGGUGCUUGGUACGUUAUAUUCAGCCGGUCUGAUGAGUCUCUGUACAGACGAAACAGC [CUGUAC]    1.99
GCUGUCACCGGUGCUUGGUACGUUAUAUUCAGCCGGUCUGAUGAGUCUGUAGGUAGACGAAACAGC [GUAGGU]    2
GCUGUCACCGGUGCUUGGUACGUUAUAUUCAGCCGGUCUGAUGAGUCUGUUUUUAGACGAAACAGC [GUUUUU]    2.01
GCUGUCACCGGUGCUUGGUACGUUAUAUUCAGCCGGUCUGAUGAGUCUCACUUAAGACGAAACAGC [CACUUA]    1.95
GCUGUCACCGGUGCUUGGUACGUUAUAUUCAGCCGGUCUGAUGAGUCUUGAGUUAGACGAAACAGC [UGAGUU]    1.94
GCUGUCACCGGUGCUUGGUACGUUAUAUUCAGCCGGUCUGAUGAGUCUGCUAUCAGACGAAACAGC [GCUAUC]    2.08
GCUGUCACCGGUGCUUGGUACGUUAUAUUCAGCCGGUCUGAUGAGUCUAUUGUUAGACGAAACAGC [AUUGUU]    1.99
GCUGUCACCGGUGCUUGGUACGUUAUAUUCAGCCGGUCUGAUGAGUCUGCGUGCAGACGAAACAGC [GCGUGC]    2.04
GCUGUCACCGGUGCUUGGUACGUUAUAUUCAGCCGGUCUGAUGAGUCUACCCACAGACGAAACAGC [ACCCAC]    2.02
GCUGUCACCGGUGCUUGGUACGUUAUAUUCAGCCGGUCUGAUGAGUCUAGUGCCAGACGAAACAGC [AGUGCC]    2.07
GCUGUCACCGGUGCUUGGUACGUUAUAUUCAGCCGGUCUGAUGAGUCUGCUUUUAGACGAAACAGC [GCUUUU]    2.01
GCUGUCACCGGUGCUUGGUACGUUAUAUUCAGCCGGUCUGAUGAGUCUUCCGCAAGACGAAACAGC [UCCGCA]    2.01
GCUGUCACCGGUGCUUGGUACGUUAUAUUCAGCCGGUCUGAUGAGUCUAUAAAGAGACGAAACAGC [AUAAAG]    1.9
GCUGUCACCGGUGCUUGGUACGUUAUAUUCAGCCGGUCUGAUGAGUCUGACCACAGACGAAACAGC [GACCAC]    2
GCUGUCACCGGUGCUUGGUACGUUAUAUUCAGCCGGUCUGAUGAGUCUGAUGCGAGACGAAACAGC [GAUGCG]    1.94
GCUGUCACCGGUGCUUGGUACGUUAUAUUCAGCCGGUCUGAUGAGUCUUAAGGCAGACGAAACAGC [UAAGGC]    1.98
GCUGUCACCGGUGCUUGGUACGUUAUAUUCAGCCGGUCUGAUGAGUCUGAGAGUAGACGAAACAGC [GAGAGU]    1.98
GCUGUCACCGGUGCUUGGUACGUUAUAUUCAGCCGGUCUGAUGAGUCUGCGGUGAGACGAAACAGC [GCGGUG]    2.03
GCUGUCACCGGUGCUUGGUACGUUAUAUUCAGCCGGUCUGAUGAGUCUCCCCAUAGACGAAACAGC [CCCCAU]    2.03
GCUGUCACCGGUGCUUGGUACGUUAUAUUCAGCCGGUCUGAUGAGUCUUCGCGAAGACGAAACAGC [UCGCGA]    2
GCUGUCACCGGUGCUUGGUACGUUAUAUUCAGCCGGUCUGAUGAGUCUAUGGUUAGACGAAACAGC [AUGGUU]    1.98
GCUGUCACCGGUGCUUGGUACGUUAUAUUCAGCCGGUCUGAUGAGUCUUUUGUCAGACGAAACAGC [UUUGUC]    2.07
GCUGUCACCGGUGCUUGGUACGUUAUAUUCAGCCGGUCUGAUGAGUCUAGUACUAGACGAAACAGC [AGUACU]    2.01
GCUGUCACCGGUGCUUGGUACGUUAUAUUCAGCCGGUCUGAUGAGUCUCGAUCUAGACGAAACAGC [CGAUCU]    2.06
GCUGUCACCGGUGCUUGGUACGUUAUAUUCAGCCGGUCUGAUGAGUCUAGCCUGAGACGAAACAGC [AGCCUG]    2.01
GCUGUCACCGGUGCUUGGUACGUUAUAUUCAGCCGGUCUGAUGAGUCUGGAGCAAGACGAAACAGC [GGAGCA]    1.98
GCUGUCACCGGUGCUUGGUACGUUAUAUUCAGCCGGUCUGAUGAGUCUCGUGGCAGACGAAACAGC [CGUGGC]    2.02
GCUGUCACCGGUGCUUGGUACGUUAUAUUCAGCCGGUCUGAUGAGUCUACUACGAGACGAAACAGC [ACUACG]    1.94
GCUGUCACCGGUGCUUGGUACGUUAUAUUCAGCCGGUCUGAUGAGUCUAAAGACAGACGAAACAGC [AAAGAC]    1.98
GCUGUCACCGGUGCUUGGUACGUUAUAUUCAGCCGGUCUGAUGAGUCUAAAUUCAGACGAAACAGC [AAAUUC]    2.03
GCUGUCACCGGUGCUUGGUACGUUAUAUUCAGCCGGUCUGAUGAGUCUUACCAAAGACGAAACAGC [UACCAA]    1.97
GCUGUCACCGGUGCUUGGUACGUUAUAUUCAGCCGGUCUGAUGAGUCUCAGAAAAGACGAAACAGC [CAGAAA]    1.94
GCUGUCACCGGUGCUUGGUACGUUAUAUUCAGCCGGUCUGAUGAGUCUAUUUCAAGACGAAACAGC [AUUUCA]    2.04
GCUGUCACCGGUGCUUGGUACGUUAUAUUCAGCCGGUCUGAUGAGUCUUAUGGGAGACGAAACAGC [UAUGGG]    1.54
GCUGUCACCGGUGCUUGGUACGUUAUAUUCAGCCGGUCUGAUGAGUCUCGACACAGACGAAACAGC [CGACAC]    2.03
GCUGUCACCGGUGCUUGGUACGUUAUAUUCAGCCGGUCUGAUGAGUCUCGAAAAAGACGAAACAGC [CGAAAA]    1.96
GCUGUCACCGGUGCUUGGUACGUUAUAUUCAGCCGGUCUGAUGAGUCUAAAAUGAGACGAAACAGC [AAAAUG]    1.94
GCUGUCACCGGUGCUUGGUACGUUAUAUUCAGCCGGUCUGAUGAGUCUGUGCAGAGACGAAACAGC [GUGCAG]    1.93
GCUGUCACCGGUGCUUGGUACGUUAUAUUCAGCCGGUCUGAUGAGUCUGUACGAAGACGAAACAGC [GUACGA]    2
GCUGUCACCGGUGCUUGGUACGUUAUAUUCAGCCGGUCUGAUGAGUCUUACAAUAGACGAAACAGC [UACAAU]    1.95
GCUGUCACCGGUGCUUGGUACGUUAUAUUCAGCCGGUCUGAUGAGUCUCAGAAUAGACGAAACAGC [CAGAAU]    1.92
GCUGUCACCGGUGCUUGGUACGUUAUAUUCAGCCGGUCUGAUGAGUCUCCAUUAAGACGAAACAGC [CCAUUA]    1.99
GCUGUCACCGGUGCUUGGUACGUUAUAUUCAGCCGGUCUGAUGAGUCUGUAGGCAGACGAAACAGC [GUAGGC]    1.88
GCUGUCACCGGUGCUUGGUACGUUAUAUUCAGCCGGUCUGAUGAGUCUGACAGUAGACGAAACAGC [GACAGU]    1.99
GCUGUCACCGGUGCUUGGUACGUUAUAUUCAGCCGGUCUGAUGAGUCUGGUUGAAGACGAAACAGC [GGUUGA]    2.08
GCUGUCACCGGUGCUUGGUACGUUAUAUUCAGCCGGUCUGAUGAGUCUAAACCCAGACGAAACAGC [AAACCC]    2.05
GCUGUCACCGGUGCUUGGUACGUUAUAUUCAGCCGGUCUGAUGAGUCUCCGACGAGACGAAACAGC [CCGACG]    2.03
GCUGUCACCGGUGCUUGGUACGUUAUAUUCAGCCGGUCUGAUGAGUCUAACGGUAGACGAAACAGC [AACGGU]    1.96
GCUGUCACCGGUGCUUGGUACGUUAUAUUCAGCCGGUCUGAUGAGUCUCAGUGGAGACGAAACAGC [CAGUGG]    1.91
GCUGUCACCGGUGCUUGGUACGUUAUAUUCAGCCGGUCUGAUGAGUCUAAUAAAAGACGAAACAGC [AAUAAA]    1.97
GCUGUCACCGGUGCUUGGUACGUUAUAUUCAGCCGGUCUGAUGAGUCUGAAAGAAGACGAAACAGC [GAAAGA]    2.01
GCUGUCACCGGUGCUUGGUACGUUAUAUUCAGCCGGUCUGAUGAGUCUGAGAUAAGACGAAACAGC [GAGAUA]    1.99
GCUGUCACCGGUGCUUGGUACGUUAUAUUCAGCCGGUCUGAUGAGUCUCUUACCAGACGAAACAGC [CUUACC]    2.02
GCUGUCACCGGUGCUUGGUACGUUAUAUUCAGCCGGUCUGAUGAGUCUCCAUCUAGACGAAACAGC [CCAUCU]    2.07
GCUGUCACCGGUGCUUGGUACGUUAUAUUCAGCCGGUCUGAUGAGUCUUCUCGCAGACGAAACAGC [UCUCGC]    2.1
GCUGUCACCGGUGCUUGGUACGUUAUAUUCAGCCGGUCUGAUGAGUCUGUCUCUAGACGAAACAGC [GUCUCU]    2.04
GCUGUCACCGGUGCUUGGUACGUUAUAUUCAGCCGGUCUGAUGAGUCUGGAGAGAGACGAAACAGC [GGAGAG]    1.85
GCUGUCACCGGUGCUUGGUACGUUAUAUUCAGCCGGUCUGAUGAGUCUGAGCUUAGACGAAACAGC [GAGCUU]    2.05
GCUGUCACCGGUGCUUGGUACGUUAUAUUCAGCCGGUCUGAUGAGUCUGACUAAAGACGAAACAGC [GACUAA]    1.98
GCUGUCACCGGUGCUUGGUACGUUAUAUUCAGCCGGUCUGAUGAGUCUCAUAUGAGACGAAACAGC [CAUAUG]    2.03
GCUGUCACCGGUGCUUGGUACGUUAUAUUCAGCCGGUCUGAUGAGUCUGCAGGAAGACGAAACAGC [GCAGGA]    1.97
GCUGUCACCGGUGCUUGGUACGUUAUAUUCAGCCGGUCUGAUGAGUCUUGAGGUAGACGAAACAGC [UGAGGU]    1.92
GCUGUCACCGGUGCUUGGUACGUUAUAUUCAGCCGGUCUGAUGAGUCUAACCGUAGACGAAACAGC [AACCGU]    1.99
GCUGUCACCGGUGCUUGGUACGUUAUAUUCAGCCGGUCUGAUGAGUCUAGAGUUAGACGAAACAGC [AGAGUU]    2
GCUGUCACCGGUGCUUGGUACGUUAUAUUCAGCCGGUCUGAUGAGUCUAAUGCUAGACGAAACAGC [AAUGCU]    2.02
GCUGUCACCGGUGCUUGGUACGUUAUAUUCAGCCGGUCUGAUGAGUCUACCUACAGACGAAACAGC [ACCUAC]    2.02
GCUGUCACCGGUGCUUGGUACGUUAUAUUCAGCCGGUCUGAUGAGUCUGAGGACAGACGAAACAGC [GAGGAC]    1.95
GCUGUCACCGGUGCUUGGUACGUUAUAUUCAGCCGGUCUGAUGAGUCUGAUUUUAGACGAAACAGC [GAUUUU]    2.01
GCUGUCACCGGUGCUUGGUACGUUAUAUUCAGCCGGUCUGAUGAGUCUUACCGAAGACGAAACAGC [UACCGA]    1.97
GCUGUCACCGGUGCUUGGUACGUUAUAUUCAGCCGGUCUGAUGAGUCUGGUCGGAGACGAAACAGC [GGUCGG]    2.05
